# Test system: A498
# TEST_PROTOCOL: NCI tumour cell line growth inhibition, 48 h
Active and inactive are the calls of the source. No stated cut-off is given here; in the data, active = GI50 up to about 1.1 µM and inactive = higher.
PROPERTY: GI50

Could you share which GI50 value was measured for COC1(c2ccc(Cl)cc2)SC=C(C)n2c1noc2=O (stereo not drawn) ?
> 100 µM (inactive)

// same read-out, input: Cc1sc2nc3n(c(=O)c2c1C)N=CN(c1ccc(Cl)cc1)C3
> 100 µM (inactive)

What about this compound? COC(=O)c1cccc(OC)c1C#Cc1c(OC)cccc1OC
> 100 µM (inactive)

----------
Would you mind telling me the reported GI50 of each entry?
# Test system: HOP-62
# TEST_PROTOCOL: NCI tumour cell line growth inhibition, 48 h
Activity calls are given as the source filed them. No stated cut-off is given here; in the data, active = GI50 up to about 1.1 µM and inactive = higher.

Requested field: GI50. Item: O=C1/C(=C/c2ccccc2O)N=C(c2ccccc2)N1C1Nc2cc3c(cc2S1)NC(N1C(=O)/C(=C/c2ccccc2O)N=C1c1ccccc1)S3 (configuration not stated)
31.2 µM (inactive)

What about this compound? O=C1/C(=C/c2ccc(Cl)cc2)N=C(c2ccccc2)N1c1ccc(S(=O)(=O)Nc2nccs2)cc1
62.2 µM (inactive)

# iterate: CCOC(=O)c1ccc(/N=C2\S/C(=C\C(=S)Nc3ccccc3)N(c3ccccc3)\C2=N/c2ccc(C(=O)OCC)cc2)cc1
> 100 µM (inactive)

Cool, now C/C=C(/CBr)CCC(Br)C(C)(C)Cl.C/C=C(\CBr)CCC(Br)C(C)(C)Cl (configuration not stated)
> 10 µM (inactive)

Another: N#Cc1ccccc1NC(=O)C(=O)C(C(=O)c1ccccc1F)C1OC(=O)c2ccccc21 (configuration not stated)
66.8 µM (inactive)

Repeat for the following compound: CN(C)C(=C1c2cc([N+](=O)[O-])ccc2-c2ccc([N+](=O)[O-])cc21)N(C)C
> 100 µM (inactive)

Try this compound too: CCN(CC)C(=S)N/N=C(\C)c1ccccc1O
34.6 µM (inactive)
